test system: Candida parapsilosis; test: Antifungal activity against Candida parapsilosis GIM 2.190 assessed as inhibition of visible growth; assay type: functional; settings: Lodderomyces parapsilosis
Value kind: MIC80
Be sure to follow the number with its unit.

Worked examples, 7 compounds total:
[2H]C([2H])([2H])N(Cc1ccc(-c2ccc(C(F)(F)F)cc2)nc1)[C@H](C)[C@](O)(Cn1cncn1)c1ccc(F)cc1F :: 6 ng/mL
CN(Cc1ccc(-c2ccccc2F)cn1)CC(O)(Cn1cncn1)c1ccc(F)cc1F (stereo not drawn) :: 12 ng/mL
CN(Cc1ccc(-c2ccc(Cl)cc2)o1)CC(O)(Cn1cncn1)c1ccc(F)cc1F (stereo not drawn) :: 100 ng/mL
CN(Cc1ccc(N2CCN(Cc3ccc(F)cc3Br)CC2)cc1)CC(O)(Cn1cncn1)c1ccc(F)cc1F (stereo not drawn) :: 6 ng/mL
[2H]C([2H])([2H])N(Cc1ccc(-c2ccc(Cl)c(F)c2)cc1F)[C@H](C)[C@](O)(Cn1cncn1)c1ccc(F)cc1F :: 12 ng/mL
CN(Cc1ccc(-c2ccc(C(F)(F)F)cc2)cn1)CC(O)(Cn1cncn1)c1ccc(F)cc1F (stereo not drawn) :: 6 ng/mL
[2H]C([2H])([2H])N(Cc1ccc(-c2ccc(OC(F)(F)F)cc2)cc1)[C@H](C)[C@](O)(Cn1cncn1)c1ccc(F)cc1F :: 6 ng/mL

We now examine a further compound.
Form: Entry = C[C@@H](N(C)Cc1ccc(-c2ccc(Cl)cc2)cc1)[C@](O)(Cn1cncn1)c1ccc(F)cc1F | System = Candida parapsilosis | MIC80 = ____
6 ng/mL
